Target: Voltage-dependent L-type calcium channel (Cavia porcellus)
Assay: Dissociation constant for inhibition of [3H]nitrendipine binding to guinea pig myocardial membranes
Conditions: read-out: Kd2
Field: pKd. Provide a value for each of the molecules that follow.
Expect pKd as a plain number equal to -log10 of the molar concentration.

Need pKd, item COC(=O)C1=C(C)N=C(C)/C(=C(\O)OC)C1c1ccccc1Cl (centres undefined) 9.00

What do you have for COC(=O)C1=C(C)N=C(C)/C(=C(\O)OC)C1c1cccc([N+](=O)[O-])c1Cl (centres undefined) ? 7.07

What do you have for COC(=O)C1=C(C)N=C(C)/C(=C(\O)OC)C1c1cc([N+](=O)[O-])ccc1Cl (centres undefined) ? 7.13

What do you have for COC(=O)C1=C(C)N=C(C)/C(=C(\O)OC)C1c1cccc(C#N)c1 (centres undefined) ? 6.82

----------
Tested on: Voltage-dependent L-type calcium channel (Cavia porcellus)
Assay: Bmax1 from dihydropyridine receptor binding assay in guinea pig myocardial membranes
EXPERIMENTAL_READOUT: Bmax1

Need Bmax1, item COC(=O)C1=C(C)N=C(C)/C(=C(\O)OC)C1c1cc([N+](=O)[O-])ccc1Cl (stereo not given) 49%

What do you have for COC(=O)C1=C(C)N=C(C)/C(=C(\O)OC)C1c1cccc([N+](=O)[O-])c1Cl (stereo not given) ? 79%

What do you have for COC(=O)C1=C(C)N=C(C)/C(=C(\O)OC)C1c1ccc([N+](=O)[O-])cc1Cl (stereo not given) ? 8%

What do you have for COC(=O)C1=C(C)N=C(C)/C(=C(\O)OC)C1c1cccc(C#N)c1 (stereo not given) ? 83%

What do you have for COC(=O)C1=C(C)N=C(C)/C(=C(\O)OC)C1c1ccccc1Cl (stereo not given) ? 21%

----------
Biological target: Voltage-dependent L-type calcium channel (Cavia porcellus)
Assay: Dissociation constant for inhibition of [3H]nitrendipine binding to guinea pig myocardial membranes
Conditions: read-out: Kd2
EXPERIMENTAL_READOUT: pKd
Expect pKd as a plain number equal to -log10 of the molar concentration.

Need pKd, item COC(=O)C1=C(C)N=C(C)/C(=C(\O)OC)C1c1ccc([N+](=O)[O-])cc1Cl (stereo unspecified) 6.97

----------
Field: log10 Kd. Provide a value for each of the molecules that follow.
Biological target: Voltage-dependent L-type calcium channel (Cavia porcellus)
Experiment: Dissociation constant for inhibition of [3H]nitrendipine binding to guinea pig myocardial membranes
Details: read-out: Kd1
Give log10 of Kd, with Kd taken in nM.

For Voltage-dependent L-type calcium channel (Cavia porcellus), provide log10 Kd of COC(=O)C1=C(C)N=C(C)/C(=C(\O)OC)C1c1cc([N+](=O)[O-])ccc1Cl (stereo not given) please. -0.02

What do you have for COC(=O)C1=C(C)N=C(C)/C(=C(\O)OC)C1c1cccc(C#N)c1 (stereo not given) ? 0.33

What do you have for COC(=O)C1=C(C)N=C(C)/C(=C(\O)OC)C1c1cccc([N+](=O)[O-])c1Cl (stereo not given) ? -0.64

What do you have for COC(=O)C1=C(C)N=C(C)/C(=C(\O)OC)C1c1ccc([N+](=O)[O-])cc1Cl (stereo not given) ? 0.10

What do you have for COC(=O)C1=C(C)N=C(C)/C(=C(\O)OC)C1c1ccccc1Cl (stereo not given) ? -2.22

----------
Test system: Voltage-dependent L-type calcium channel (Cavia porcellus)
Assay: Bmax2 from dihydropyridine receptor binding assay in guinea pig myocardial membranes
EXPERIMENTAL_READOUT: Bmax2 (%)
Give the value, in units of %, as a plain number.

Need Bmax2, item COC(=O)C1=C(C)N=C(C)/C(=C(\O)OC)C1c1ccc([N+](=O)[O-])cc1Cl (stereo not given) 92

What do you have for COC(=O)C1=C(C)N=C(C)/C(=C(\O)OC)C1c1cc([N+](=O)[O-])ccc1Cl (stereo not given) ? 51

What do you have for COC(=O)C1=C(C)N=C(C)/C(=C(\O)OC)C1c1ccccc1Cl (stereo not given) ? 79

What do you have for COC(=O)C1=C(C)N=C(C)/C(=C(\O)OC)C1c1cccc([N+](=O)[O-])c1Cl (stereo not given) ? 21

What do you have for COC(=O)C1=C(C)N=C(C)/C(=C(\O)OC)C1c1cccc(C#N)c1 (stereo not given) ? 17
